Values were extracted from ChEMBL document CHEMBL1150720.

Listing: log10 of IC50 of selected molecules
Assay procedure: Inhibition of beef heart mitochondrial NADH oxidase assessed per mg of protein
Set-up: species or system Bos taurus
Test conditions: read-out: I50
In plain terms, each number is the log10 of measured IC50 in nmol/mg.

Can you share its log10 of IC50? I mean this molecule: "O=c1c(O)c(-c2ccc(O)cc2O)oc2cc(O)cc(O)c12" 2.63

Same read-out for "O=c1c(O)c(-c2ccccc2)oc2cc(O)cc(O)c12" ? 3.22

Same read-out for O=c1cc(-c2ccccc2)oc2cccc(O)c12 [5-HYDROXYFLAVONE] ? 2.63

Same read-out for "O=c1c(O)c(-c2ccc(O)c(O)c2)oc2cc(O)ccc12" ? 1.18

Same read-out for "O=C1c2ccc(O)cc2O[C@H](c2ccc(O)c(O)c2)[C@H]1O" ? 2.83

Same read-out for "O=c1c(O)c(-c2cc(O)c(O)c(O)c2)oc2cc(O)cc(O)c12" ? 1.54

Same read-out for O=C1c2c(O)cc(O)cc2O[C@H](c2ccc(O)c(O)c2)[C@H]1O [(+)-TAXIFOLIN] ? 3.02

Same read-out for "O=c1c(-c2ccc(O)cc2)coc2cc(O)cc(O)c12" ? 2.56

Same read-out for "O=c1cc(-c2ccccc2)oc2cc(O)cc(O)c12" ? 2.40
